For each of the variants below, state its protein stability index.
B1: MLL5 (parent)
chain: DCMGIDRQHIPDTYLCERCQPRNL

# Variants of: B1
# Method: protein stability index of a GFP-peptide fusion (GPS, HEK-293T) (PSI 1-6); higher = more stable;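 note: lentivirally expressed fusions sorted by FACS into six bins by GFP to DsRed ratio, PSI derived from sequencing read proportions per bin multiplied by bin number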
# Measurement Context: c terminus: a fixed tail appended
A bare number is all that is needed in reply.

Asked: Return protein stability index for the following variant: R22L
Given back: 3.31

Asked: Return protein stability index for the following variant: R22C
Given back: 3.66

Asked: Return protein stability index for the following variant: P11N
Given back: 4.19

Asked: Return protein stability index for the following variant: D1H
Given back: 2.73

Asked: Return protein stability index for the following variant: P21H
Given back: 2.76

Asked: Return protein stability index for the following variant: R7M
Given back: 2.55

Asked: Return protein stability index for the following variant: I10T
Given back: 2.48

Asked: Return protein stability index for the following variant: I5A
Given back: 3.7

Asked: Return protein stability index for the following variant: C2N
Given back: 3.41

Asked: Return protein stability index for the following variant: I5H
Given back: 3.99

Asked: Return protein stability index for the following variant: Y14S
Given back: 3.32

Asked: Return protein stability index for the following variant: L24E
Given back: 3.44

Asked: Return protein stability index for the following variant: H9Y
Given back: 2.01

Asked: Return protein stability index for the following variant: L15I
Given back: 3.61

Asked: Return protein stability index for the following variant: C16H
Given back: 3.58

Asked: Return protein stability index for the following variant: C16Y
Given back: 2.88

Asked: Return protein stability index for the following variant: Q20W
Given back: 2.27

Asked: Return protein stability index for the following variant: P11G
Given back: 2.96

Asked: Return protein stability index for the following variant: C2P
Given back: 4.03

Asked: Return protein stability index for the following variant: G4I
Given back: 2.41

Asked: Return protein stability index for the following variant: L24G
Given back: 3.73

Asked: Return protein stability index for the following variant: R18W
Given back: 2.25
